Provide the recorded IC50 for the entries that follow.
Test system: SMN2 mRNA
Experiment: RT-qPCR splicing assay panel, SMN2 canonical junction (CJ) mRNA
Assay type: cell-based, human
Conditions: Homo sapiens, canonical junction (CJ) mRNA, RT-qPCR panel, Table 4A; read-out: SMN2, decrease in CJ mRNA levels, IC50

>>> df
                                   molecule    result
0  Oc1cc(-c2cn[nH]c2)ccc1-c1ccc(N2CCC(NCC3CC3)C2)nn1 (centres unmarked)  < 100 nM
1  Cc1ncc(-c2cc(O)c(-c3ccc(N4CC[C@@](C)(NCC5CC5)C4)nn3)cc2F)s1 (single isomer, unassigned)  < 100 nM
2  CC(C)(C)N[C@H]1CCN(c2ccc(-c3ccc(-c4cn[nH]c4)cc3O)nn2)C1 [Compound 261]  < 100 nM

Give one value of IC50 per listed molecule.
1. Cc1ncc(-c2ccc(-c3ccc(N4CCC(NC5CCC5)C4)nn3)cc2F)s1 (centres unmarked)
2. COc1cc(-c2cc(O)c(-c3ccc(N4CC[C@@H](NC(C)(C)C)C4)nn3)cc2F)cnn1
3. COc1nc(-c2ccc(N3CC[C@@H](NC(C)(C)C)C3)nn2)ccc1-c1cnc(C)s1

1. 100 to 1000 nM
2. < 100 nM
3. < 100 nM

Give one value of IC50 per listed molecule.
1. COc1cc(-c2cc(O)c(-c3ccc(N4CC[C@H](NC(C)(C)C)C4)nn3)cc2F)ncn1
2. Oc1cc(-n2cnnc2)ccc1-c1ccc(N2CCC(NC3CCC3)C2)nn1 (centres unmarked)

1. 100 to 1000 nM
2. 100 to 1000 nM

meta.source: patent US20250333397A1
